- study target: UniProt:P37268
- Sequence (P37268 whole entry): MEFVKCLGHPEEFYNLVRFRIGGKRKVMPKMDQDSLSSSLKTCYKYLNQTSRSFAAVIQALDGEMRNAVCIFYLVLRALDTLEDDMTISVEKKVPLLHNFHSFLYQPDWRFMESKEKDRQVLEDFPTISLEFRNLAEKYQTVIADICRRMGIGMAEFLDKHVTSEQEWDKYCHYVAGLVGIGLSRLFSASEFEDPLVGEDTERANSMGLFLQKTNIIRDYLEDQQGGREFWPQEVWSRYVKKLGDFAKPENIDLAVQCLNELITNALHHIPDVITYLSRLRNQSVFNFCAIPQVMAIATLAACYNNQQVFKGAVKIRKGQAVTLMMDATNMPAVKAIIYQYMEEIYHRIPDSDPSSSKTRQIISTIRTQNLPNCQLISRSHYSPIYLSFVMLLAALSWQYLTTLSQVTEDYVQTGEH
- experimental protocol: Inhibition of human recombinant squalene synthase expressed in Escherichia coli BL21 (DE3) cells assessed as formation of 1,10-dioic acid metabolite by liquid scintillation
quantity measured: IC50 (µM)
Kindly provide the numeric value in µM only, without the unit symbol.

**Query** Item CP(=O)(O)C(CCCc1ccc(-c2ccccc2)cc1)P(=O)(O)O (stereo unspecified) with UniProt:P37268 - IC50?
**Result** 0.072

###

- study target: UniProtKB A9JQL9
- Sequence (A9JQL9 whole entry): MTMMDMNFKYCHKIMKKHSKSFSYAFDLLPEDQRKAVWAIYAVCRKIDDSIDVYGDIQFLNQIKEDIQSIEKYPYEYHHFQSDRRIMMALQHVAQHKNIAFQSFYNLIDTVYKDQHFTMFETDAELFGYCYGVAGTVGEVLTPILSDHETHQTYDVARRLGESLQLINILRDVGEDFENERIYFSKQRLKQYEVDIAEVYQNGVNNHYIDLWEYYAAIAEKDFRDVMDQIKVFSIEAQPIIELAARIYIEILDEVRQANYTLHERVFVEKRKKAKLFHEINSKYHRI
Form field: Ki (one value per entry).
Kindly provide the numeric value in nM only, without the unit symbol.

O=P(O)(O)C(CCCc1cccc(Oc2ccc(F)cc2)c1)S(=O)(=O)O (centres undefined) ... 5
O=P(O)(O)C(CCCc1ccc(-c2ccc(C(F)(F)F)cc2)cc1)P(=O)(O)O ... 0.5
CCCc1ccc(Oc2cccc(CCCC(P(=O)(O)O)S(=O)(=O)O)c2)cc1 (centres undefined) ... 5

Okay, now this compound:
**Query** Item O=P(O)(O)C(CCCc1ccc(-c2ccccc2)cc1)P(=O)(O)O with UniProtKB A9JQL9 - Ki?
**Result** 1
